Just for reference, paper PMC7669867 is where these values come from.

# PROTOCOL_DETAILS: in vitro
# Type: in vitro ADME, human
# CONDITIONS_USED: human, plasma
READOUT_NAME: remaining at 2 h (%)
I only need the number, in %, no unit after it.

- COMPOUND: "CCOC(=O)[C@H](CCc1ccccc1)N[C@@H](C)C(=O)N1CCC[C@H]1C(=O)O"
  RESULT_NUMBER: 93.7

Now consider the entry below.
For reference, reported remaining at 2 h for FC(F)(F)c1ccc(Sc2nc3ccccc3s2)cc1 stands at 91.6

###

# SUBJECT_OF_TEST: purified recombinant human LDHA protein (Homo sapiens)
# Construct: purchased Abcam
# PROTOCOL_DETAILS: In vitro LDHA inhibitor activity (NADH fluorescence decrease)
# Format: biochemical
# Procedure: The in vitro evaluation of the LDHA inhibitor activities of the synthesized compounds was determined by the NADH intensity decrease through oxidation in a solution of HEPES-K^+, NADH, and pyruvate at a pH = 7.2. The NADH oxidation fluorescence intensity was measured using a spectrofluorometer at 340 nm excitation and 460 nm emission wavelengths, representing the NADH-specific fluorescence spectrum. […]
pIC50: −log10 of the molar value.
READOUT_NAME: pIC50

For reference, reported pIC50 for O=C(OCc1ccc2c(c1)OCO2)c1ccc([Se]c2ccccc2)cc1 stands at < 3.00

###

Each entry below carries its reported LDHB/LDHA.
# SUBJECT_OF_TEST: purified recombinant human LDHA protein (Homo sapiens, UniProt P00338)
# Construct: purchased Abcam
# PROTOCOL_DETAILS: In vitro LDHA inhibitor activity (NADH fluorescence decrease)
# Format: biochemical
# CONDITIONS_USED: ratio of LDHB IC50 to LDHA IC50 (selectivity)
// keep it numeric: no unit symbol after the value

Would you please look over these solved cases?
- COMPOUND: "O=C(OCc1ccc2c(c1)OCO2)c1ccc(C(F)(F)F)cc1 [Compound 2]"
  SUBJECT_OF_TEST: "purified recombinant human LDHA protein (Homo sapiens, UniProt P00338)"
  LDHB/LDHA: 29.00
- COMPOUND: "Nc1cccc(C(=O)OCc2ccc3c(c2)OCO3)c1 [Compound 4]"
  SUBJECT_OF_TEST: "purified recombinant human LDHA protein (Homo sapiens, UniProt P00338)"
  LDHB/LDHA: 0.043

For reference, reported LDHB/LDHA for O=C(CC(F)(F)F)OCc1ccc2c(c1)OCO2 [Compound 6] stands at 0.29

###

Each entry below carries its reported GI50.
# Tested on: human pancreatic cancer PANC-1 cells
# PROTOCOL_DETAILS: Cell viability MTT assay, PANC-1
# Format: cell-based
# CONDITIONS_USED: Homo sapiens, PANC-1; MTT, 48 h; read-out: PANC-1 (GI50)
I only need the number, in µM, no unit after it.

Would you please look over these solved cases?
- COMPOUND: "Cc1ccc(C(=O)OCc2ccc3c(c2)OCO3)cc1 [Compound 8]"
  GI50 (µM): 86.5
- COMPOUND: "O=C(OCc1ccc2c(c1)OCO2)c1ccc(I)cc1 [Compound 3]"
  GI50 (µM): 269

Now consider the entry below.
For reference, reported GI50 for O=C(OCc1ccc2c(c1)OCO2)c1ccccc1 [Compound 7] stands at 243

###

# PROTOCOL_DETAILS: in vitro
# Format: in vitro ADME, human
# CONDITIONS_USED: human, plasma
READOUT_NAME: remaining at 5 min

For reference, reported remaining at 5 min for CCN(CC)CCOC(=O)c1ccc(N)cc1 [Procaine] stands at 1.5%
